# SYSTEM: Dihydroorotate dehydrogenase (quinone), mitochondrial (Plasmodium falciparum (isolate 3D7))
# EXPERIMENT: inhibition of P. falciparum DHODH – biochemical, C-terminal His tag, absorbance 600 nm, primary screen (AID 1175);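 also: recombinant parasite enzyme with a five histidine tag at its C terminus; test concentration not given here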
# EXPERIMENTAL_CONTEXT: PfDHODH enzyme, DCIP absorbance 600 nm; higher = more signal, called active from +8 up or from −8 down
Returns satisfied if the recorded composite z-score is greater than or equal to -1, and not satisfied otherwise.

[
  {
    "MOLECULE": "COCCOC(=O)N1C(=O)[C@@]2(c3cc(C#Cc4ccc(OC)cc4)ccc31)[C@H](c1ccc(OCCO)cc1)N1[C@H](c3ccccc3)[C@H](c3ccccc3)OC(=O)[C@H]1[C@@H]2C(=O)N1CCc2cc(OC)c(OC)cc2C1",
    "CLASSIFICATION": "satisfied"
  },
  {
    "MOLECULE": "CN1C(=O)C2C=CC(C(O)C(c3ccccc3)c3ccccc3)N(Nc3ccccc3)C2C1=O (centres undefined)",
    "CLASSIFICATION": "satisfied"
  }
]

q: Textbook exercise: given the entry CN1C(=O)C2C=CC(C(O)c3ccccc3)N(NC(=O)OC(C)(C)C)C2C1=O (centres undefined) , state whether its composite z-score is greater than or equal to -1.
a: satisfied

q: # bool: composite z-score of `C/C=C/[C@H](CCn1cc([C@H](O)c2ccccc2)nn1)[Si](C)(C)c1ccc(OC)cc1` >= -1
a: satisfied

q: Does the reported composite z-score for `C=C[C@@H](C)[C@@H](OC(=O)Nc1ccc(OC)cc1)c1ccc(O)c2ccccc12` fall at or above the -1 mark?
a: not satisfied

q: composite z-score >= -1 for O=C1OCC=C[C@H]2OC34C=CCN(CCN5CCOCC5)C(=O)[C@H]3N(CCCCCCO)C(=O)[C@@H]4[C@@H]12 (some centres undefined) ?
a: not satisfied

q: // inclusive: composite z-score at least -1? input: `O=C(CS)NCCCCCCNC(=O)[C@H]1C[C@H]2C(=O)N3CCC[C@H]3C(=O)N2[C@H]1c1ccc(O)cc1`
a: satisfied

q: Textbook exercise: given the entry `CN(C)CCCCCCNC(=O)[C@@H]1C[C@@H]2C(=O)NCC(=O)N2[C@@H]1c1cccc(OCCO)c1` , state whether its composite z-score is greater than or equal to -1.
a: not satisfied

q: Is the recorded value of composite z-score equal to or greater than -1 for this molecule? `[N-]=[N+]=Nc1ccccc1[C@@H]1OC(c2ccc(OCCCO)cc2)=N[C@]1(CCS(=O)(=O)c1ccccc1)C(=O)N1CCCCC1`
a: satisfied

---

# SYSTEM: Torsin-1A (Homo sapiens) (UniProt O14656)
# Sequence (O14656 whole entry, looked up): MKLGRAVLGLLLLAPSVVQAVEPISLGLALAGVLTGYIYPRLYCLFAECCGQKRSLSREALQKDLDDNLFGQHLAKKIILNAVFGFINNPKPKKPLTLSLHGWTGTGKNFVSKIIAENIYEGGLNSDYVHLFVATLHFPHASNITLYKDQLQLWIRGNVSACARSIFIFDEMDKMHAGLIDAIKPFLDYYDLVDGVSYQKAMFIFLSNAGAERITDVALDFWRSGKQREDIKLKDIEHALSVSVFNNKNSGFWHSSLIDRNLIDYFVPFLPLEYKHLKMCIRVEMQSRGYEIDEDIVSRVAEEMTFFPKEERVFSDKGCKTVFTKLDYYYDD
# EXPERIMENT: torsin A mutant lysate binding on microarrays – cell lysate, small-molecule microarray, COS7 lysate, 635/667 nm fluorescence, primary screen (AID 1150);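 also: score pools 667 nm emission and signal to noise measuring lysate protein binding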
# EXPERIMENTAL_CONTEXT: COS7 hTOR1A mutant lysate, 635 nm fluorescence, higher = more signal
The following compounds are shown together with reported composite z-score values.
Please give the numeric answer without any surrounding text.

[
  {
    "MOLECULE_SMILES": "O=C1O[C@@H](c2ccccc2)[C@@H](c2ccccc2)N2[C@@H](c3ccc(O)cc3)[C@]3(C(=O)Nc4ccccc43)[C@@H](C(=O)N3CCCCCCC3)[C@H]12",
    "composite z-score": 1.8
  },
  {
    "MOLECULE_SMILES": "C=C(/C(=C/C[C@@H](OC(C)=O)c1ccc(CO)o1)c1cnc2ccccc2c1)C(C)C",
    "composite z-score": 0.619
  },
  {
    "MOLECULE_SMILES": "COCCCNC(=O)[C@@]1(C)c2ccccc2C(=O)N(Cc2ccccc2)[C@H]1c1ccc(CO)cc1",
    "composite z-score": 2.16
  }
]

q: Consider the compound `COCCn1c(C(=O)N(C)C)cc2c1C[C@H]1CN(C(=O)c3ccccc3)[C@@](Cc3ccc(F)cc3)(C(=O)OC)[C@@H]21` and give its measured composite z-score.
a: 0.0952

q: Name the reported composite z-score value associated with the compound `COC(=O)[C@@]1(Cc2ccccc2)[C@H]2c3cc(C(=O)N(C)C)n(Cc4ccccc4)c3C[C@H]2CN1C(=O)c1ccccc1`
a: 0.766

q: Requested field: composite z-score. Item: `COc1ccc([Si](C)(C)[C@@H]2[C@@H](CC(=O)N3Cc4ccccc4C[C@H]3CO)O[C@]3(C(=O)N(Cc4cccc(N5C(=O)COc6ccccc65)c4)c4ccccc43)[C@H]2C)cc1`
a: 0.301

---

# SYSTEM: Dihydroorotate dehydrogenase (quinone), mitochondrial (Plasmodium falciparum (isolate 3D7)) (UniProt Q08210)
# Sequence (Q08210 whole entry, looked up): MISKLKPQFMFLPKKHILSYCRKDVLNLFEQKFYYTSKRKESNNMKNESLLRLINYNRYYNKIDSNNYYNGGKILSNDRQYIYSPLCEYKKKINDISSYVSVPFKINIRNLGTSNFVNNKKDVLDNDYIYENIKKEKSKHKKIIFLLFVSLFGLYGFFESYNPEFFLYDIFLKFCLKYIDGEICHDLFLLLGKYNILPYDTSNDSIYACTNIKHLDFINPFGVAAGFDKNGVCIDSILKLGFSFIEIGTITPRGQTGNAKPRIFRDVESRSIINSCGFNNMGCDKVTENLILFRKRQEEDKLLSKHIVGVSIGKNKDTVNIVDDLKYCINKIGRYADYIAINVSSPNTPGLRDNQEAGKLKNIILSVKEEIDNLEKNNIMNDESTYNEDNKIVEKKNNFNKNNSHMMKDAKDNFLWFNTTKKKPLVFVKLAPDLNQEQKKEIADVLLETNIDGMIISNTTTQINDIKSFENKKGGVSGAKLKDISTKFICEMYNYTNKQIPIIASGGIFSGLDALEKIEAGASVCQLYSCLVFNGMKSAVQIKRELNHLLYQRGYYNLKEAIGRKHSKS
# EXPERIMENT: inhibition of P. falciparum DHODH – biochemical, C-terminal His tag, absorbance 600 nm, primary screen (AID 1175);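 also: recombinant parasite enzyme with a five histidine tag at its C terminus; test concentration not given here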
# EXPERIMENTAL_CONTEXT: PfDHODH enzyme, DCIP absorbance 600 nm; higher = more signal, called active from +8 up or from −8 down
Answer label 0 if composite z-score is under -0.07, and label 1 if it is -0.07 or more.

Would you please look over these solved cases?
[
  {
    "MOLECULE": "CC1CC/C=C\\[C@H]2OC34C=CCN(c5ccc6ccccc6c5)C(=O)[C@H]3N(CCCCCO)C(=O)[C@@H]4C2C(=O)O1 (stereo not given in full)",
    "CLASSIFICATION": "label 0"
  },
  {
    "MOLECULE": "O=C1O[C@@H](c2ccccc2)[C@@H](c2ccccc2)N2[C@@H](c3ccc(O)cc3)[C@]3(C(=O)Nc4ccccc43)[C@@H](C(=O)N3CCCCCCC3)[C@H]12",
    "CLASSIFICATION": "label 1"
  },
  {
    "MOLECULE": "[N-]=[N+]=NCc1ccccc1[C@@H]1OC(c2ccc(OCCCO)cc2)=N[C@]1(Cc1ccccc1N=[N+]=[N-])C(N)=O",
    "CLASSIFICATION": "label 1"
  },
  {
    "MOLECULE": "O=C(N1CCCCC1)[C@]1(CCS(=O)(=O)c2ccccc2)N=C(c2ccc(OCCCO)cc2)O[C@@H]1c1ccccc1",
    "CLASSIFICATION": "label 1"
  },
  {
    "MOLECULE": "CC(C)(C)OC(=O)CC[C@@]1(C(N)=O)N=C(c2ccc(OCCCO)cc2)O[C@@H]1c1ccccc1N=[N+]=[N-]",
    "CLASSIFICATION": "label 1"
  }
]

q: hey, is composite z-score for this one >= -0.07? `O=C(NCc1ccccc1)[C@@H]1c2ccccc2C(=O)N(C2CCCCC2)[C@H]1c1ccc(CO)cc1`
a: label 1

q: Quick check, composite z-score >= -0.07? `Cc1ccc(S[C@]2(C(=O)NCC(F)(F)F)CC(=O)N(C3Cc4ccccc4C3)[C@@H]2c2ccc(CO)cc2I)cc1`
a: label 1

q: Check this molecule for composite z-score at or above -0.07: `COc1ccc(C#Cc2ccc3c(c2)[C@]2(C(=O)N3)[C@H](C(=O)N3CCN(c4ncccn4)CC3)[C@H]3C(=O)O[C@H](c4ccccc4)[C@H](c4ccccc4)N3[C@@H]2c2ccc(O)cc2)cc1`
a: label 0

q: Assess whether reported composite z-score for `[N-]=[N+]=Nc1ccccc1C[C@]1(C(=O)N2CCCCC2)N=C(c2ccc(OCCCO)cc2)O[C@H]1c1ccccc1N=[N+]=[N-]` sits at -0.07 or higher.
a: label 1

q: Please tell me: is the molecule C=CCC(OC(C)=O)[C@@H]1[C@@H](N(Cc2cc3ccccc3o2)C(=O)c2cccc3ccccc23)c2cc(OCCCO)ccc2N1C(=O)Cc1ccc2ccccc2c1 (stereo not given in full) at or over -0.07 in terms of composite z-score?
a: label 1

q: For this molecule, is measured composite z-score -0.07 or higher? `Oc1ccc2cc[n+](Cc3cccc(OC(F)(F)F)c3)cc2c1`
a: label 0

q: Could you please find out whether `C=CC[C@]1(C(=O)O)N=C(c2ccc(OCCCO)cc2)O[C@H]1c1ccccc1CN=[N+]=[N-]` has composite z-score that meets -0.07 or exceeds it?
a: label 1

q: Assess whether reported composite z-score for `O=C1C[C@@](C(=O)O)(c2ccc([N+](=O)[O-])cc2)[C@@H](c2ccc(CO)cc2I)N1C1CCCCC1` sits at -0.07 or higher.
a: label 0

q: Answer whether composite z-score of `C=C(C(=O)CC[C@@H](OC(=O)c1cccnc1)c1ccc(CO)o1)C(C)C` is greater than or equal to -0.07.
a: label 1

q: Is reported composite z-score greater than or equal to -0.07 here: `CCCNC(=O)[C@@]1(C)c2ccccc2C(=O)N(Cc2cc(F)cc(C(F)(F)F)c2)[C@H]1c1ccc(CO)cc1`
a: label 1

q: Determine whether measured composite z-score meets or exceeds -0.07 for `O=C1O[C@H](c2ccccc2)[C@H](c2ccccc2)N2[C@H]1[C@@H](C(=O)NC[C@H](O)c1ccccc1)[C@]1(C(=O)Nc3ccc(C#CC4(O)CCCCCC4)cc31)[C@H]2c1ccccc1OCCO`
a: label 0

q: Hi, just wondering whether Cc1ccc(C(C)CC(O)C2C=CC3C(=O)NC(=O)C3N2Nc2ccccn2)o1 (stereo not given) shows composite z-score of -0.07 or higher.
a: label 1

q: Entry `CCOC(=O)C1=CC[C@@H](c2ccccc2)N(S(=O)(=O)c2ccc(C)cc2)[C@H]1c1ccc(C#N)cc1` : is its composite z-score no less than -0.07?
a: label 0

q: Check the entry `COCCOC(=O)N1C(=O)[C@@]2(c3cc(C#CC4=CCCCC4)ccc31)[C@H](C(=O)N1CCN(c3ncccn3)CC1)[C@H]1C(=O)O[C@H](c3ccccc3)[C@H](c3ccccc3)N1[C@@H]2c1ccc(OCCO)cc1` : does composite z-score equal or exceed -0.07?
a: label 0

q: Form field: composite z-score at least -0.07? Entry: `O=C1O[C@H](c2ccccc2)[C@H](c2ccccc2)N2[C@H]1[C@@H](C(=O)NC[C@H](O)c1ccccc1)[C@]1(C(=O)Nc3ccc(C#CC4=CCCCC4)cc31)[C@H]2c1ccc(O)cc1`
a: label 0
